Recorded measurements of melting point, one per entry

Query "COc1cc(NC(=O)C(C)(C)C)ccc1C(=O)N(C)C" yields melting point of 143 to 144 °C

Record "CCOC(=O)c1nn(-c2ccccc2Cl)c(=O)c(C#N)c1C" , field melting point: 93 to 95 °C

Form: compound = "CCCCCCCc1ccc(NS(=O)(=O)c2ccc(N3CCNC3=O)cc2)cc1" ; melting point = 188 to 190 °C

compound "COc1ccc(-c2cccn2-c2ccc(S(C)(=O)=O)cc2)cc1" , melting point observed: 183 to 184 °C

Entry CCCC(O)(CCC)c1ccc(C2=CC=CC(OCc3ccc(CO)c(CO)c3)C2(C)C)cc1 (stereo not given) , melting point reported as 118 to 120 °C

---

# key: entry, value: melting point

Would you please look over these solved cases?
>>> reported_measurement("CC1(C)OC(=S)Nc2ccc(-c3ccc(C#N)[nH]3)cc21")
"261 to 262 °C"
>>> reported_measurement("CCCCCSc1c[nH]nc1C1=CCCN(C)C1")
"100 to 101 °C"
>>> reported_measurement("CN(C)CCCN1c2ccccc2C(c2ccccc2F)=Nc2cccnc21")
"92 to 94 °C"
>>> reported_measurement("CCCCNC(=O)[C@@H](C[C@H](O)[C@H](CC1CCCCC1)NC(=O)[C@H](Cc1cscn1)NC(=O)OC(C)(C)C)C(C)C")
"201 to 203 °C"

The recorded melting point for entry "NS(=O)(=O)c1ccc(-n2nc(C(F)(F)F)cc2-c2ccc(-c3cscn3)c(Cl)c2)cc1F" equals 173 to 175 °C

Query O=C(O)CCC1COc2ccccc2O1 (stereo unspecified) yields melting point of 102 °C

Short answer for "c1ccc2c(c1)-c1cccc3c(NCCCCNc4nccc5ccccc45)nnc-2c13" : melting point was 95 to 105 °C

---

Listed here are compounds together with their documented melting point.

>>> reported_measurement("Cc1ccnc(C(=O)c2[nH]c3ccc(Cl)cc3c2CC(=O)O)c1C")
"236 to 237 °C"
>>> reported_measurement("NC(=O)c1ccc(Cn2ccc(OCc3ccc(F)cc3F)c(Br)c2=O)cc1")
"235 to 238 °C"

Record CC(C)CCCC(C)NC1=NS(=O)(=O)c2cc(Cl)ccc2N1 (stereo not given) , field melting point: > 220 °C

Documented melting point of "CCn1cc(C(=O)O)c(=O)c2cc(F)c(-n3ccnc3)c(F)c21" : 283 to 288 °C

What the record says about "Cc1cc2cn[nH]c2c(C(=O)NC2(C3CC3)CC2)c1NC(=O)c1cc(Br)nn1-c1ncccc1Cl" : melting point is 170 to 173 °C

Reported melting point ( "O=C(Nc1cccc(Cl)c1)NN1CC=CCC1" ) = 146 to 147 °C

The reported melting point of the compound CCOC(NC(=O)c1cccc(OC)c1)C(N)=O (stereo not given) was 143 to 144 °C

Value of measured melting point for the entry "CN(CC(=O)OC(C)(C)C)S(=O)(=O)c1ccc2c(Cl)cnc(NC(=N)N)c2c1" : 84 °C

response.value for "CC(C)(C)OC(=O)N1CCN2C[C@H](COc3ccc(F)cc3)CC[C@H]2C1" (field: melting point) = 90 to 92 °C

Given item COc1cccc2c1OC(CO)CC2 (stereo not given) , the value recorded as its melting point is 57 to 58 °C

---

Measured parameter: melting point

>>> reported_measurement("COc1ccc(Cc2cc(O)ccc2OC)nc1")
"115 to 122 °C"
>>> reported_measurement("Cc1ccc(S(=O)(=O)NN=CC(Cl)Cl)cc1")
"123 °C"
>>> reported_measurement("Cc1ccc(S(=O)(=O)Nc2nc(-c3cccc([N+](=O)[O-])c3)cs2)cc1")
"187 to 189 °C"
>>> reported_measurement("C=CCOc1cc(C)ccc1N1C(=O)c2ccccc2C1=O")
"122 to 124 °C"
>>> reported_measurement("N#CC1CN1C(=O)c1ccccn1 (stereo not given)")
"124 to 127 °C"
>>> reported_measurement("CCOC(=O)C(=O)Nc1cc(NC(=O)C(=O)OCC)c(OC)nc1OC")
"170 to 173 °C"
>>> reported_measurement("CC1(C)CC(OC(=O)c2cccc(C(=O)OC3CC(C)(C)N(OC4CCCCC4)C(C)(C)C3)c2)CC(C)(C)N1OC1CCCCC1")
"135 to 141 °C"
>>> reported_measurement("CCOC(=O)c1ccc(-c2nc(C(=O)OCC)ns2)cc1")
"66 to 67.5 °C"

Entry "NC(=O)c1sc2nccc(N3CCCN(c4ccccc4Cl)CC3)c2c1N" ; melting point = 206 to 210 °C

get_value(item= "CCSc1cn(C)cc(-c2ccccc2)c1=O" , readout=melting point) returns 94 to 95 °C

---

Measured parameter: melting point

>>> reported_measurement("CC(C)Cn1c(=O)n(C)c(=O)c2c(SCCN(C)C)n(Cc3cccc4ccccc34)cc21")
"140 to 144 °C"
>>> reported_measurement("CCc1nc2c(N)nc3cc(OCCNC(C)=O)ccc3c2n1CC1CCOCC1")
"165 to 167 °C"
>>> reported_measurement("CN1CCC(c2ccc(-c3ccccc3)cc2)(C(C)(C)O)CC1")
"192 to 193 °C"
>>> reported_measurement("CCCCCC(CC(=O)Nc1cc(C(N)=O)ccc1C(C)(C)C)c1ccc(OCCCOC)cc1OC (centres undefined)")
"65 to 67 °C"
>>> reported_measurement("N#Cc1ccc(-c2oncc2CCCO)cc1")
"82 to 83 °C"
>>> reported_measurement("COc1cc2ncnc(N3CCN(C(=O)Nc4ccc(C(=O)C(F)(F)F)cc4)CC3)c2cc1OC")
"144 to 146 °C"
>>> reported_measurement("CCOC(=O)C(=O)N(c1ccccc1)c1ccc(OC)cc1OC")
"142 to 144 °C"
>>> reported_measurement("CC1(C)Nc2ncc(-c3ccc(C(=O)N4CCC[C@H]4CN4CCCC4)cc3)cc2N(Cc2cc(F)ccc2F)C1=O")
"171 to 172 °C"

// next entry
Per the records, this compound ( COc1cc(SC2SCC(OC(C)=O)C(OC(C)=O)C2OC(C)=O)cc(OC)c1OC (centres undefined) ) has melting point equal to 101 °C

---

Measured parameter: melting point

>>> reported_measurement("CC1=C(C#N)C(=C(C#N)C#N)OC1(C)C")
"203 °C"
>>> reported_measurement("Cc1cccc(C)c1NC=O")
"163 to 164 °C"
>>> reported_measurement("Cn1ncc(/C=C/C(=O)Nc2ccc(CC(=O)O)cc2)c1-c1ccc(F)cc1")
"245 to 246 °C"

Alright, here's another compound for you.
"c1csc(-c2nc3cnccc3[nH]2)c1" yielded melting point of 265 to 268 °C

---

Measured parameter: melting point

// worked examples, melting point included
>>> reported_measurement("O=C(c1ccc(OCc2ccccc2)cc1)c1ccc(OCc2ccccc2)cc1")
"188 to 190 °C"
>>> reported_measurement("COc1ccc([C@H]2Cc3c(cccc3C(F)(F)F)NC(=O)[C@H]2O)cc1 (relative stereo)")
"205 to 208 °C"
>>> reported_measurement("Nc1ccccc1-c1csc2nc(C34CC5CC(CC(C5)C3)C4)cn12")
"160 to 162 °C"
>>> reported_measurement("Nc1cccc(Oc2cccc(Oc3cccc(N)c3)c2)c1")
"105 to 107 °C"
>>> reported_measurement("O=C(Nc1ccc(-c2nnn[nH]2)cc1)Oc1ccc([N+](=O)[O-])cc1")
"> 260 °C"
>>> reported_measurement("Cc1nc(-c2ccc(C#CC3(O)CN4CCC3CC4)cc2)no1 (single isomer, unassigned; (-))")
"211 to 212 °C"

For this compound ( "NC(=O)CNC(=O)c1cc2c(Oc3ccc(Cl)cc3)cncc2s1" ), measured melting point is 222 to 225 °C

Field melting point (entry "CN(C)c1ccc2c(=O)c(-c3nnnn3C)cn(C)c2c1" ) reads 280 to 283 °C

Per the records, this compound ( "N#Cc1ccc2[nH]cc(C3CCC4(CC3)OCCO4)c2c1" ) has melting point equal to 153 to 155 °C

Short answer for "COC(=O)CCN1CCC(=C2c3sccc3CCn3ccnc32)CC1" : melting point was 108 °C

Measured melting point, "Cc1cccc(C(=O)NN=Cc2ccc3ccccc3n2)c1" : 188 °C

The measured melting point associated with CN1c2nnnn2-c2ccc(Cl)cc2C1c1ccccc1 (stereo unspecified) reads 280 °C

Record summary for "Cc1[nH]c(=S)[nH]c(=O)c1CCc1ccccc1" : reported melting point = 210 to 214 °C

Looking up "CN1CCC(=C2c3ccccc3CCc3ccc(C#N)cc32)CC1" , I see its melting point listed as 152 to 154 °C

The compound listed as O=C1NC[C@H]2CCC[C@H]2O1 (relative stereo) shows melting point equal to 56 to 58 °C

The reported value for "OCc1cccc2c(-c3ccc(Br)cc3)nccc12" in terms of melting point is 226 °C

// provenance: a melting point compilation (Tetko et al.; mined from patent text by program, amines drawn as free bases though some values may be those of a salt)
